Entries and their pIC50
Target system: beta-catenin/TCF4 engagement (Homo sapiens, UniProt P35222)
Construct: expressed in transfected cells; host or cells: HEK293
Sequence (P35222 1-781): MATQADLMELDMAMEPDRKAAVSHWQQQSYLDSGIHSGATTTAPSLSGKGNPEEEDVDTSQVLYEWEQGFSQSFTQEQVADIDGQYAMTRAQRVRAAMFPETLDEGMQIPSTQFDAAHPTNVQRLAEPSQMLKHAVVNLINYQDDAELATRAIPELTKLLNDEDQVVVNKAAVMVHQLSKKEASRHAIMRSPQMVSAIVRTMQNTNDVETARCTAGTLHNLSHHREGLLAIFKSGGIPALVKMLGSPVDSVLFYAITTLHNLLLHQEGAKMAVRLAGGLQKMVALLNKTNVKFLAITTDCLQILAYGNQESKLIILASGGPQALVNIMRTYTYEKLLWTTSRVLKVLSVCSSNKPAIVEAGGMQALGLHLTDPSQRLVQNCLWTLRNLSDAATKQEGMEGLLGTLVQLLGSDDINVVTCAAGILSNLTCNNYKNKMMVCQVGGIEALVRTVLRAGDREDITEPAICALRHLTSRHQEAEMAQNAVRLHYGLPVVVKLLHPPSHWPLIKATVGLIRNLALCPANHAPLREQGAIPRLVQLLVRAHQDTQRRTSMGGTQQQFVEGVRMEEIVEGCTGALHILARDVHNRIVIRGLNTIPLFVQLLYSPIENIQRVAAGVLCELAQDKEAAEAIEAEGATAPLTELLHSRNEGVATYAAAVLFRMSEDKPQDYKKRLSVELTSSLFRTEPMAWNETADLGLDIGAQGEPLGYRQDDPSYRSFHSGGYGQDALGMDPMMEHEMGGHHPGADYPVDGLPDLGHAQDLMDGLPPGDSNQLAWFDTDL
Protocol details: Nano-BRET target engagement assay (B-cat-Halo & TCF4-Luc in HEK293 cells)
Type: cell-based
Recorded conditions: absolute IC50; read-out: NanoBRET Abs IC50
pIC50: −log10 of the molar value.
Recorded endpoint: pIC50

1. CCCC[C@@H]1NC(=O)[C@H](Cc2ccccc2)NC(=O)[C@H](C)NC(=O)C(C)(C)NC(=O)[C@H](Cc2cccc(C(=O)O)c2)NC(=O)[C@H](CC(=O)O)NC(=O)C2(CCCC=CCCCOC(=O)N3CC[C@@](C(=O)N[C@@H](Cc4ccsc4)C(=O)N[C@@H](Cc4csc5ccccc45)C(=O)N[C@@H](CCC(=O)N4CCOCC4)C(N)=O)(C3)NC1=O)CCCC=CC[C@]1(CCCN1C(C)=O)C(=O)N[C@@H](CC(=O)O)C(=O)N[C@@H](CC(C)(C)C)C(=O)N2 (stereo partly drawn) [I-2553] :: 5.09
2. CC(=O)N1CCC[C@]12CC=CCCCC1(CCCC=CCCCOC(=O)N3CC[C@@](C(=O)N[C@@H](Cc4ccccc4C(F)(F)F)C(=O)N[C@@H](Cc4csc5ccccc45)C(=O)N[C@@H](C)C(N)=O)(C3)NC(=O)[C@H](CC(C)C)NC(=O)[C@H](Cc3ccccc3)NC(=O)[C@H](C)NC(=O)[C@H](CCC(=O)N3CCN(CCCN(C)C)CC3)NC(=O)[C@H](Cc3cccc(C(=O)O)c3)NC(=O)[C@H](CC(=O)O)NC1=O)NC(=O)[C@H](CC(C)(C)C)NC(=O)[C@H](CC(=O)O)NC2=O (stereo partly drawn) [I-2323] :: 4.75
